Target: T1, human TGF-beta 1 (R&D Systems, Cat # 240-B/CF) (human, UniProt P01137 279-390)
T1 construct: They match K95 and residues 58-61 of mature numbering; also called TGF-β1; mature TGF-β1
T1 sequence (P01137 279-390 limits assumed): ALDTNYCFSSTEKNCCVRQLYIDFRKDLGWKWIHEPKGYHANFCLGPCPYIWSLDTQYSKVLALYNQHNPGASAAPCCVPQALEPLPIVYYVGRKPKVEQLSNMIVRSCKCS
Assay: Biacore SPR, mAb captured on Protein A, TGF-beta 1 injected
Would you mind telling me the reported koff of each entry?
Field format: number, assumed s⁻¹, no unit text.

What value of koff has been reported for the following binder? mAb 23A3 (antibody, IgG4, V domains shown) VH: QVQLVQSGAEVKKPGASVKVSCKASGYDFTDYNMVWVRQAPGQGLEWMGSIYPYDGETGYNQKFKSRVTMTTDTSTSTAYMELRSLRSDDTAVYYCARGYRAFEYWGQGTLVTVSS VL: DIQMTQSPSSLSASVGDRVTITCRASSSVPYMHWYQQKPGKAPKLLIYATSNPAYGVPSRFSGSGSGTDFTLTISSLQPEDFATYYCQQWDLNPPAFGQGTKLEIK
1e-05

// query koff value for entry mAb DM4 (antibody, human IgG4 S228P, kappa, V domains shown, Full-length IgG4 antibody; also called LA307-DM4) VH: QVQLVQSGAEVKKPGASVKVSCKASGYDFTDYNIHWVRQAPGQGLEWMGYIYPYDGETGYNQKFKSRVTMTTDTSTSTAYMELRSLRSDDTAVYYCARGYRWLAYWGQGTLVTVSS VL: DIQMTQSPSSLSASVGDRVTITCRASSSVSYMHWYQQKPGKAPKPLIYATSNLAYGVPSRFSGSGSGTDFTLTISSLQPEDFATYYCQQWDLNPPAFGQGTKLEIKR
1.4e-05

Origin of the recorded values: patent US20080050375A1
